- Tested on: kochia (Kochia scoparia)
- Method: Test A greenhouse herbicide test, pre- and postemergence
- Assay type: in vivo
- Test Conditions: Preemergence, 125 g ai/ha; visual injury rating, 0 to 100 scale (0 no effect, 100 complete control), approx. 10 d
Would you kindly list Plant response rating, Kochia for each of these compounds?
// return just the number, without any unit appended

Identify Plant response rating, Kochia associated with the compound CC(=O)Oc1c(Cl)nn(C)c(=O)c1-c1c(C)sc2ccc(C(F)(F)F)cc12
30

Identify Plant response rating, Kochia associated with the compound Cc1nn(Cc2ccccc2)c(=O)c(-c2cccc3ccccc23)c1O
0

Identify Plant response rating, Kochia associated with the compound Cc1nn(C)c(=O)c(-c2ccc(Cl)c3ccccc23)c1OC(=O)C(F)(F)F
100

Identify Plant response rating, Kochia associated with the compound CCOC(=O)Oc1c(C)nn(C)c(=O)c1-c1c([N+](=O)[O-])ccc2ccccc12
30

Identify Plant response rating, Kochia associated with the compound Cc1nn(C)c(=O)c(-c2c([N+](=O)[O-])ccc3ccccc23)c1O
60

Numbers sourced from patent US10597388B2.
